Tested on: 633275-114-R-J1-PDC complex spheroids, viability
Experiment: Anticancer human tumor 633275-114-R-J1-PDC patient-derived endometrial adenocarcinoma cell line growth inhibition [GQUAD]
Details: second compound 10 µM; first compound 3.16 µM; stronger effect = lower value
Please respond with reported viability, T/C for every item in the list.
One number for each entry, in %.

// known answers, use as guide
# Compound, Test Readout, Value Unit, Value Reported
rows = [
    ("C#Cc1c(F)ccc2cc(O)cc(-c3ncc4c(N5CC6CCC(C5)N6)nc(OCC56CCCN5CC(F)C6)nc4c3F)c12 (stereo not drawn) + CN(C)c1ccc(Nc2c3ccc(NC(=O)CCN4CCCC4)cc3nc3cc(NC(=O)CCN4CCCC4)ccc23)cc1", "viability, T/C", "%", 16.1),
    ("O=C(NO)c1cnc(N2CCN(S(=O)(=O)c3ccc4ccccc4c3)CC2)nc1 + Cc1cnc(CNC(=O)c2c(=O)c3ccc(N4CCCN(C)CC4)nc3n3c2sc2ccccc23)cn1", "viability, T/C", "%", 0.14),
]

--- query ---
QUERY: Query (compound): CCCS(=O)(=O)Nc1ccc(F)c(C(=O)c2c[nH]c3ncc(-c4ccc(Cl)cc4)cc23)c1F + CN(C)c1ccc(Nc2c3ccc(NC(=O)CCN4CCCC4)cc3nc3cc(NC(=O)CCN4CCCC4)ccc23)cc1 ; field requested: viability, T/C
RESULT: 25.1

====

Please respond with reported viability, T/C for every item in the list.
Tested on: 633275-114-R-J1-PDC complex spheroids, viability
Experiment: Anticancer human tumor 633275-114-R-J1-PDC cell line growth inhibition [GQUAD];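 also: spheroids exposed to the agents for seven days; percent of DMSO vehicle control viability which is 100%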
Settings: second compound 0.1 µM; first compound 0.00316 µM; stronger effect = lower value
Numbers only, in %.

// known answers, use as guide
# Compound, Test Target, Value Unit, viability, T/C
data = [
    ("Cc1[nH]c2ccccc2c1CCNCc1ccc(/C=C/C(=O)NO)cc1 + CN(C)c1ccc(Nc2c3ccc(NC(=O)CCN4CCCC4)cc3nc3cc(NC(=O)CCN4CCCC4)ccc23)cc1", "633275-114-R-J1-PDC complex spheroids, viability", "%", 102),
    ("Cn1ncnc1[C@H]1c2n[nH]c(=O)c3cc(F)cc(c23)N[C@@H]1c1ccc(F)cc1 + Cc1[nH]c2ccc(F)cc2c1-c1nc2c3cccnc3c3ncccc3c2[nH]1", "633275-114-R-J1-PDC complex spheroids, viability", "%", 93),
    ("Cc1[nH]c2ccccc2c1CCNCc1ccc(/C=C/C(=O)NO)cc1 + Cc1[nH]c2ccc(F)cc2c1-c1nc2c3cccnc3c3ncccc3c2[nH]1", "633275-114-R-J1-PDC complex spheroids, viability", "%", 90.4),
]

Would you be so kind as to report viability, T/C for each listed record?
1. Cn1ncnc1[C@H]1c2n[nH]c(=O)c3cc(F)cc(c23)N[C@@H]1c1ccc(F)cc1 + Cc1cnc(CNC(=O)c2c(=O)c3ccc(N4CCCN(C)CC4)nc3n3c2sc2ccccc23)cn1
2. CC[C@@]1(O)C(=O)OCc2c1cc1n(c2=O)Cc2cc3c(CN(C)C)c(O)ccc3nc2-1 + CN(C)c1ccc(Nc2c3ccc(NC(=O)CCN4CCCC4)cc3nc3cc(NC(=O)CCN4CCCC4)ccc23)cc1

RESULT:
1: 51.3; 2: 101
